Just for reference, patent US11897862B2 is where these values come from.

# Measurement target: IKZF1 (Homo sapiens, UniProt Q13422+Q96SW2)
# Construct: expressed in transfected cells
# Sequence (Q13422 whole entry): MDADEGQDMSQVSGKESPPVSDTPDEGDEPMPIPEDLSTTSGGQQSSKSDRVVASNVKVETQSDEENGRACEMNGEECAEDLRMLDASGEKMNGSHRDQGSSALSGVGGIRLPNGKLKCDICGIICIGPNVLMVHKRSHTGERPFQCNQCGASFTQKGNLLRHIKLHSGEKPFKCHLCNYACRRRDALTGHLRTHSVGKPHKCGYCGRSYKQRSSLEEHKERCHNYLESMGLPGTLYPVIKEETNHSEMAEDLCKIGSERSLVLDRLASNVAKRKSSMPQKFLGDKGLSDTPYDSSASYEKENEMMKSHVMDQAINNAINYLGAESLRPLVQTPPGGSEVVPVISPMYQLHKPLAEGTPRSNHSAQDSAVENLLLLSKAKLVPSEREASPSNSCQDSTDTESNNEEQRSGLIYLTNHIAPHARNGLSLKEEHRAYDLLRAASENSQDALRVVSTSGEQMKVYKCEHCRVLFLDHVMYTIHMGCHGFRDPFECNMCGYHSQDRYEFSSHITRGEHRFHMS
# Sequence (Q96SW2 whole entry): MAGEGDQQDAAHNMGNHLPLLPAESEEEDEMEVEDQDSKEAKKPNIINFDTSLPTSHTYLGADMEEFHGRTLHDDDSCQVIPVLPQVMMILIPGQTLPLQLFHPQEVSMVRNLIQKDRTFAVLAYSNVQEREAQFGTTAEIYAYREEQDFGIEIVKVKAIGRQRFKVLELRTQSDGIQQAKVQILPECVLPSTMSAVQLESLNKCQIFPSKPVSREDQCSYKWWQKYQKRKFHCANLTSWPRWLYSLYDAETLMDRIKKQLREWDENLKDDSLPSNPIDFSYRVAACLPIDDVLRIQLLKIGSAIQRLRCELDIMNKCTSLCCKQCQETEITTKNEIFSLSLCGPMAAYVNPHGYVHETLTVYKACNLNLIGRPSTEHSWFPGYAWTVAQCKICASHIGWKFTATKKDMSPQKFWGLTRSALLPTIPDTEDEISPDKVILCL
# Sequence (Q16531 whole entry partner): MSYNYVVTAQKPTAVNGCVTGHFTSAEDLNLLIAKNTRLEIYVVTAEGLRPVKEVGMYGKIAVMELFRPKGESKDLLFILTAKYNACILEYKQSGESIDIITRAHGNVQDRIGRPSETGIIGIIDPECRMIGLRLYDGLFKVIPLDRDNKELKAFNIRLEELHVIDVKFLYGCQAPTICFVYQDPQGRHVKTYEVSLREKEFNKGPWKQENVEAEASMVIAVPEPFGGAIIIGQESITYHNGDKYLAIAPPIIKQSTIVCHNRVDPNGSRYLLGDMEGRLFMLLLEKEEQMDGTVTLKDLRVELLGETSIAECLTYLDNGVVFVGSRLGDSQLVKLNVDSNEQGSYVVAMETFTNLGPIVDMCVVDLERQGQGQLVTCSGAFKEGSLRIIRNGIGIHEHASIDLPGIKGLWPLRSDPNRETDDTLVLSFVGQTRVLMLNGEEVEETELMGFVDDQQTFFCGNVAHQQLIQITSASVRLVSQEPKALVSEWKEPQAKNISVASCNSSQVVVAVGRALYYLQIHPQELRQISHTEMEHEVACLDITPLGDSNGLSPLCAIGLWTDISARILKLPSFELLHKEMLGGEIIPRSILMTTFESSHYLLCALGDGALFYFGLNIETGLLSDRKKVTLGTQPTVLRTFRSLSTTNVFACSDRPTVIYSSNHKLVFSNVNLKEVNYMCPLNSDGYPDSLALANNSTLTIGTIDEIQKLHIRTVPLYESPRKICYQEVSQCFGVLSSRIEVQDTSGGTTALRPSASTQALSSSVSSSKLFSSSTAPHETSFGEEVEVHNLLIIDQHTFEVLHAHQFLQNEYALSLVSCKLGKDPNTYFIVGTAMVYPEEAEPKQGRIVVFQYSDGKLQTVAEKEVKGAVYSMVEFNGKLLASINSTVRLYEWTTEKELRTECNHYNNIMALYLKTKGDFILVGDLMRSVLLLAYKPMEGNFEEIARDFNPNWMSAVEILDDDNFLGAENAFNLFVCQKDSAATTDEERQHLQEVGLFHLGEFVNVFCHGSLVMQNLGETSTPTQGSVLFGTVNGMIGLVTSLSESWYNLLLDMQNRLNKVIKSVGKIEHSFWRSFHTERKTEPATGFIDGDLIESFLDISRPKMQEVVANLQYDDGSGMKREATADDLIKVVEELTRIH
# Procedure summary: HEK293 HiBiT in vitro degradation of IKZF1
# Format: cell-based
# Study conditions: HEK293, HEK293 HiBiT; maximum degradation at the highest concentration tested
Measured metric: Dmax (%)

// solved cases for Dmax follow
- Compound: "O=C1CCC(N2Cc3cc(C[C@H]4CCCC[C@@H]4NC4CCC5(CC5)C4)ccc3C2=O)C(=O)N1 (single isomer, unassigned)"
  Unit of measure: "%"
  Val: 30
- Compound: "O=C1CCC(N2Cc3cc(C[C@H]4CCCC[C@@H]4NC4CCC(F)(F)CC4)c(F)cc3C2=O)C(=O)N1 (some centres unmarked)"
  Unit of measure: "%"
  Val: 50
- Compound: "COC1(C)CCC(N[C@H]2CCCO[C@@H]2Cc2ccc3c(c2F)CN(C2CCC(=O)NC2=O)C3=O)CC1 (single isomer, unassigned)"
  Unit of measure: "%"
  Val: 33

(1) CC(N[C@H]1CCCC[C@@H]1Cc1ccc2c(c1F)CN(C1CCC(=O)NC1=O)C2=O)C1CCOCC1 (single isomer, unassigned)
(2) CC1(C)CCC(N[C@H]2CCCO[C@@H]2Cc2ccc3c(c2F)CN(C2CCC(=O)NC2=O)C3=O)C1 (single isomer, unassigned)
Could you tell me which of 1 and 2 has the lower Dmax reading? Your answer should be the label of the entry you select. 2
